- System: 786-0
- assay-text: NCI tumour cell line growth inhibition, 48 h
Activity calls are given as the source filed them. Rule as the data show it: active = GI50 up to about 1.1 µM and inactive = higher. Starred links: 1 amine or outer side, 2 acyl side, 3 side chain; linkers in the order of their positions; H or OH if unused. Positions of bridges follow the written chain, without caps; N, C: chain ends. Non-standard residues stand in square brackets, D forms with d. Residues, ends and D or L forms follow the SMILES beside them. ξ: configuration not given here. X37 = CC[C@H](C)[C@@H](N[*:1])[C@@H](O)CC(=O)O[C@H](C(=O)[C@H](C)C(=O)[*:2])C(C)C; NMeY = CN[C@@H](Cc1ccc(O)cc1)C(=O)O; dNMeL = CN[C@H](CC(C)C)C(=O)O; ξΔPro = O=C(O)C1C=CCN1
Outcomes: active, inactive

# molecule, assayed-target, group
data = [
    ("CCN(CC)CCCC(C)Nc1ccnc2cc3ccccc3cc12 (stereo not given)", "786-0", "inactive"),
    ("COc1cccc(N2C(=O)C3c4[nH]c5ccccc5c4C4c5ccccc5CCC4C3C2=O)c1 (stereo not given)", "786-0", "inactive"),
    ("COc1cc(Cn2c3c(c4c(CN(C)C)c(O)ccc42)C(=O)c2ccccc2C3=O)cc(OC)c1", "786-0", "inactive"),
    ("CCc1cccc(C(C)C)c1NC(=O)C(=O)C(Cc1nc2ccccc2nc1O)C(=O)OC (stereo not given)", "786-0", "inactive"),
    ("CC1(C)C(=O)/C=C\\C(=O)C(C)(C)C2=CC=C(O2)C(C)(C)C(=O)/C=C\\C(=O)C(C)(C)C2=CC=C1O2", "786-0", "inactive"),
    ("OC1C#CCSCC#C/C=C\\1 (stereo not given)", "786-0", "inactive"),
    ("CCOC(=O)CON=c1c2ccccc2ccc2ccccc12", "786-0", "inactive"),
    ("C#CC1(OC(C)=O)CCC2C3CC=C4C=C(OC(C)=O)CCC4(C)C3CCC21C (stereo not given)", "786-0", "inactive"),
    ("N#Cc1cc(NC(=O)c2ccccc2)c(=O)n2c1[nH]c1ccccc12", "786-0", "inactive"),
    ("O=C(Oc1ccc2c(-c3ccccc3)c(C(=O)Nc3ccc(Cl)cc3)c(=O)oc2c1)c1ccccc1", "786-0", "inactive"),
    ("O=C1CC(c2ccccc2)C2(C(=O)NC(=S)NC2=O)C(c2ccccc2)C1 (stereo not given)", "786-0", "inactive"),
    ("O=C(Nc1nc(C23CC4CC(CC(C4)C2)C3)cs1)c1cc2c(ccc3ccccc32)oc1=O", "786-0", "inactive"),
    ("Oc1ccc([Te]CCNCC[Te]c2ccc(O)cc2)cc1", "786-0", "inactive"),
    ("CCOC(=O)C(C#N)C1=CC(=O)C(=O)c2ccc(OC)cc21 (stereo not given)", "786-0", "inactive"),
    ("CC(C)(C)CNC(=O)NCn1cc(-c2ccccc2)nn1", "786-0", "inactive"),
    ("CC1(C)OCC(C2OC(C)(C)OC2[C@H]2O[C@@]3(O)[C@H]4[C@H](C=CC[C@@H]42)[C@@H](OCc2ccccc2)[C@H](OCc2ccccc2)[C@H]3OCc2ccccc2)O1 (stereo not given in full)", "786-0", "inactive"),
    ("CC1CN(CCO)CC(C)O1 (stereo not given)", "786-0", "inactive"),
    ("O=C(C(=O)N1CCc2ccccc21)c1c[nH]c2ccccc12", "786-0", "inactive"),
    ("COc1c(O)c2c(c3cc(C(=O)N4CCc5c4c(O)c(OC)c4[nH]c(C(=O)N6CC7CC78C6=CC(=O)c6[nH]cc(C)c68)cc54)[nH]c13)CCN2C(N)=O (stereo not given)", "786-0", "active"),
    ("CC[C@H](C)[C@H]1NC(=O)[C@@H](NC(=O)[C@@H](CC(C)C)N(C)C(=O)C2C=CCN2)[C@@H](C)OC(=O)[C@H](Cc2ccc(OC)cc2)N(C)C(=O)[C@@H]2CCCN2C(=O)[C@H](CC(C)C)NC(=O)[C@@H](C)C(=O)[C@H](C(C)C)OC(=O)C[C@@H]1O (stereo not given in full) (H-[ξΔPro][dNMeL]T[X37]LP[NMeY](Me); ester 3-C)", "786-0", "active"),
]
